Taken from patent US7638535B2.

TARGET_SYSTEM: h5-HT4b (Homo sapiens, UniProt Q13639)
Construct: expressed in transfected cells; host or cells: HEK 293 (clone 9), membrane preparation
Sequence (Q13639 whole entry): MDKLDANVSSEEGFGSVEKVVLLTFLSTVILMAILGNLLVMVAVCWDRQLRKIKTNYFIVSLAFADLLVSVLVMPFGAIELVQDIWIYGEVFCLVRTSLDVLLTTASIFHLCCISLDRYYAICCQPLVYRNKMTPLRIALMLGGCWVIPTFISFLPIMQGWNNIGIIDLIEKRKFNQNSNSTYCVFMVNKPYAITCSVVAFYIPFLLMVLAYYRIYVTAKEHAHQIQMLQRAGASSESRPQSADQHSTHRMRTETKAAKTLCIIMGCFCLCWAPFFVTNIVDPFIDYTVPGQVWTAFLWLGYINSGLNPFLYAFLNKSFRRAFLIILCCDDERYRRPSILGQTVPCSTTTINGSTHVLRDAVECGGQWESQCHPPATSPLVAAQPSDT
PROTOCOL_DESCRIPTION: 5HT4 antagonism: [3H]GR113808 binding to membranes of h5-HT4b-HEK 293 clone 9 cells
SETTINGS: displacement of [3H]GR113808 0.1 nM, h5-HT4b-HEK 293 membranes, 30 min at 25° C.; read-out: pIC50 (5HT4 antagonistic data) (converted)
Procedure: h5-HT4b-HEK 293 clone 9 cells were cultured in 150 mm Petri dishes and washed twice with cold PBS. The cells were then scraped from the plates and suspended in 50 mM Tris-HCl buffer, pH 7.4 and harvested by centrifugation at 23,500 rpm for 10 minutes. The pellet was resuspended in 5 mM Tris-HCl, pH 7.4 and homogenized with an Ultra Turrax homogenizer. The membranes were collected by centrifugation at 30,000 rpm for 20 min, resuspended in 50 mM Tris-HCl pH 7.4 and stored at −80° C. […]
MEASUREMENT_KIND: IC50 (nM)

# count of solved cases: 8
Nc1cc(C(=O)NC[C@@H]2CCNC[C@H]2O)c2c(c1Cl)OCCO2	372
Cc1nccnc1NCCN1CC[C@@H](CNC(=O)c2cc(N)c(Cl)c3c2OCCO3)[C@H](O)C1	30.2
CNc1cc2c(c(C(=O)NC[C@@H]3CCN(Cc4ccc(F)cc4)C[C@H]3O)c1)OCCCO2	214
CCCCNc1cc2c(c(C(=O)NC[C@@H]3CCN(CCCC)C[C@H]3O)c1)OCCCO2	61.7
Cc1cc2c(c(C(=O)NC[C@H]3CCN(CCCC#N)C[C@H]3O)c1)OCCCO2	19.5
Nc1cc2c(c(C(=O)NC[C@@H]3CCN(CC4CCCO4)C[C@H]3O)c1)OCCCO2 (some centres unmarked)	69.2
Cc1nccnc1NCCN1CC[C@@H](CNC(=O)c2cc(N)c(Cl)c3c2OCCCO3)[C@H](O)C1	12
Cc1cc2c(c(C(=O)NC[C@@H]3CCN(CCOc4ccc(S(N)(=O)=O)cc4)C[C@H]3O)c1)OCCCO2	1.2

(a) Nc1cc(C(=O)NC[C@@H]2CCN(CCCOC3CCCCC3)C[C@H]2O)c2c(c1Cl)OCCCO2
(b) CNc1cc2c(c(C(=O)NC[C@@H]3CCN(CCCC(=O)O)C[C@H]3O)c1)OCCO2
(c) CC(C)OCCCN1CC[C@@H](CNC(=O)c2cc(N)cc3c2OCCO3)[C@H](O)C1
Ask: List the 3 entries from lowest IC50 to highest IC50 value. To answer, write out the labels according to the requested order.
Reply: a, c, b

(I) CNc1cc2c(c(C(=O)NC[C@@H]3CCN(CCCCO)C[C@H]3O)c1)OCCO2
(II) CCCCN1CC[C@@H](CNC(=O)c2cc(N)cc3c2OCCO3)[C@H](O)C1
(III) Nc1cc(C(=O)NC[C@@H]2CCN(CCOCCO)C[C@H]2O)c2c(c1Cl)OCCCO2
(IV) CNCCCN1CC[C@@H](CNC(=O)c2cc(NC)cc3c2OCCCO3)[C@H](O)C1
(V) Cc1cc2c(c(C(=O)NC[C@@H]3CCN(CCCCOc4ccc(S(N)(=O)=O)cc4)C[C@H]3O)c1)OCCCO2
Ask: Task for the reader: rank each entry by its IC50, from the minimum upward. Your answer should be the labels, listed in the requested order.
Reply: V, II, I, III, IV
(V: 0.589 nM, II: 5.5 nM, I: 15.8 nM, III: 83.2 nM, IV: 1150 nM)

(I) COCCCCN1CC[C@@H](CNC(=O)c2cc(N)c(Cl)c3c2OCCCO3)[C@H](O)C1
(II) COCc1cc2c(c(C(=O)NC[C@@H]3CCN(CCCO)C[C@H]3O)c1)OCCCO2
Ask: Choose between I and II : whose measured IC50 value is numerically larger? // return label of chosen record
Reply: II
(II: 32.4 nM, I: 14.1 nM)

* * *

TARGET_SYSTEM: h5-HT4b (Homo sapiens)
Construct: expressed in transfected cells; host or cells: HEK 293 (clone 9), membrane preparation
PROTOCOL_DESCRIPTION: 5HT4 antagonism: [3H]GR113808 binding to membranes of h5-HT4b-HEK 293 clone 9 cells
SETTINGS: displacement of [3H]GR113808 0.1 nM, h5-HT4b-HEK 293 membranes, 30 min at 25° C.; read-out: pIC50 (5HT4 antagonistic data) (converted)
MEASUREMENT_KIND: IC50 (µM)

These solved cases illustrate the format of a correct answer.
N#Cc1cc2c(c(C(=O)NC[C@@H]3CCN(CCC4OCCO4)C[C@H]3O)c1)OCCCO2	0.0162
Nc1cc2c(c(C(=O)NC[C@@H]3CCN(CCCCO)C[C@H]3O)c1)OCCCO2	0.055
Cc1cc2c(c(C(=O)NC[C@@H]3CCN(CCCC(=O)N4CCN(C)CC4)C[C@H]3O)c1)OCCCO2	0.000851

(a) COCCCCN1CC[C@@H](CNC(=O)c2cc(N)cc3c2OCCCO3)[C@H](O)C1
(b) COCCCN1CC[C@@H](CNC(=O)c2cc(N)cc3c2OCCCO3)[C@H](O)C1
(c) COCCCN1CC[C@@H](CNC(=O)c2cc(C)cc3c2OCCCO3)[C@H](O)C1 (single isomer, unassigned) [compound 162]
Ask: Sort (3 molecules) by IC50: min first. Would you mind listing the labels in the order asked for?
Reply: c, b, a
(c: 0.00309 µM, b: 0.02 µM, a: 0.049 µM)

(I) CNc1cc2c(c(C(=O)NC[C@@H]3CCN(CCCOC(C)C)C[C@H]3O)c1)OCCCO2
(II) CO[C@@H]1CN(CCCC#N)CC[C@H]1CNC(=O)c1cc(C)cc2c1OCCCO2
Ask: Quick one: lower IC50, I or II ? // output: label of the selected item
Reply: II
(II: 0.00501 µM, I: 0.0501 µM)

* * *

TARGET_SYSTEM: h5-HT4b (Homo sapiens, UniProt Q13639)
Construct: expressed in transfected cells; host or cells: HEK 293 (clone 9), membrane preparation
PROTOCOL_DESCRIPTION: 5HT4 antagonism: [3H]GR113808 binding to membranes of h5-HT4b-HEK 293 clone 9 cells
SETTINGS: displacement of [3H]GR113808 0.1 nM, h5-HT4b-HEK 293 membranes, 30 min at 25° C.; read-out: pIC50 (5HT4 antagonistic data) (converted)
MEASUREMENT_KIND: IC50 (µM)

Nc1cc(C(=O)NC[C@@H]2CCN(Cc3ccc(F)cc3)C[C@H]2O)c2c(c1Cl)OCCO2	0.0155

(A) Nc1cc(C(=O)NC[C@@H]2CCN(CCCO)C[C@H]2O)c2c(c1Cl)OCCO2
(B) CNCCCCN1CC[C@@H](CNC(=O)c2cc(C)cc3c2OCCCO3)[C@H](O)C1
Ask: Lab log: flag the item ( A or B ) with the smaller IC50 figure. When you have decided, please share the label of that item.
Reply: B

* * *

TARGET_SYSTEM: h5-HT4b (Homo sapiens, UniProt Q13639)
Construct: expressed in transfected cells; host or cells: HEK 293 (clone 9), membrane preparation
PROTOCOL_DESCRIPTION: 5HT4 antagonism: [3H]GR113808 binding to membranes of h5-HT4b-HEK 293 clone 9 cells
SETTINGS: displacement of [3H]GR113808 0.1 nM, h5-HT4b-HEK 293 membranes, 30 min at 25° C.; read-out: pIC50 (5HT4 antagonistic data) (converted)
MEASUREMENT_KIND: IC50 (nM)

CCCCN1CC[C@@H](CNC(=O)c2cc(COC)cc3c2OCCCO3)[C@H](O)C1	8.91
Cc1cc2c(c(C(=O)NC[C@@H]3CCN(CCCCC(N)=O)C[C@H]3O)c1)OCCCO2	1.48

(a) Cc1cc2c(c(C(=O)NC[C@@H]3CCN(CCCS(C)(=O)=O)C[C@H]3O)c1)OCCO2
(b) Cc1cc2c(c(C(=O)NC[C@@H]3CCN(CCC#N)C[C@H]3O)c1)OCCCO2
Ask: Among a and b , whose measured IC50 is the smaller figure? Lab note: record the label of whichever item you select.
Reply: a

* * *

MEASUREMENT_KIND: melting point (°C)

# annotated cases, reported melting point shown
Cc1cc2c(c(C(=O)NC[C@@H]3CCN(CCCCNS(C)(=O)=O)C[C@H]3O)c1)OCCCO2	134
Cc1cc2c(c(C(=O)NC[C@@H]3CCN(CCCC(N)=O)C[C@H]3O)c1)OCCCO2	136

(P) Cc1nccnc1NCCN1CC[C@@H](CNC(=O)c2cc(N)c(Cl)c3c2OCCO3)[C@H](O)C1
(Q) CS(=O)(=O)NCCN1CC[C@@H](CNC(=O)c2cc(N)c(Cl)c3c2OCCO3)[C@H](O)C1
Ask: Which one would you say has the larger melting point value: P , or Q ? State your choice using its label.
Reply: Q
(Q: 180 °C, P: 100 °C)
